Source: a melting point compilation (Tetko et al.; mined from patent text by program, amines drawn as free bases though some values may be those of a salt)

Entries and their melting point values follow.
endpoint: melting point

[[record]]
molecule = "CC(C)n1nc(-c2c(NCc3ccccc3)nc(N)nc2-c2ccc(F)cc2)ccc1=O"
recordedmeasurement = "191 to 192 °C"

[[record]]
molecule = "CC1(C)Oc2ccc(OC(F)F)cc2[C@@H](N2CCCCC2=O)[C@@H]1O (relative stereo)"
recordedmeasurement = "165 °C"

[[record]]
molecule = "COC(=O)c1c(C)sc2cc(CCn3ccnc3)ccc12"
recordedmeasurement = "90 to 92 °C"

[[record]]
molecule = "O=C(O)C1=Cc2cc(Br)ccc2S(=O)(=O)CC1"
recordedmeasurement = "290 to 300 °C"

[[record]]
molecule = "CC(C)c1sc(C(O)(C(F)(F)F)C(F)(F)F)nc1-c1ccc(S(C)(=O)=O)cc1"
recordedmeasurement = "122 to 123 °C"

[[record]]
molecule = "CCOC(=O)Cc1nc2ccccc2n1C"
recordedmeasurement = "66 to 67 °C"

[[record]]
molecule = "CC(C)(C)OC(=O)NCCNC(=O)c1cc(-c2ccccc2)c(=O)n2c1-c1ccccc1C2"
recordedmeasurement = "238 to 240 °C"

[[record]]
molecule = "C=C1C(O)C2(O)OCC34C(CC5C(C)=CC(=O)C(O)C5(C)C23)OC(=O)CC14 (centres undefined)"
recordedmeasurement = "235 to 237 °C"

[[record]]
molecule = "COc1cc(N)c(Cl)cc1C(=O)NCC1CCN(CCCCCC(=O)c2ccc(F)cc2F)CC1"
recordedmeasurement = "115 to 117 °C"

[[record]]
molecule = "c1cc(CN2CCCC2)cc(OCCCNc2nc3ccccc3s2)c1"
recordedmeasurement = "91 to 92 °C"

[[record]]
molecule = "CNC(=O)NS(=O)(=O)c1cc(CCNC(=O)C=Cc2ccc(OC)cc2OC)ccc1OC"
recordedmeasurement = "210 °C"

[[record]]
molecule = "Cn1cc(C(=O)O)c(=O)c2cc(F)c(F)c(F)c21"
recordedmeasurement = "255 to 258 °C"

[[record]]
molecule = "Clc1ccccc1Oc1c(Cl)ncnc1Cl"
recordedmeasurement = "76 to 77 °C"

[[record]]
molecule = "CC(CCCC(=O)O)(c1ccc(OCc2ccc3ccccc3n2)cc1)c1ccc(OCc2ccc3ccccc3n2)cc1"
recordedmeasurement = "87 to 89 °C"

[[record]]
molecule = "O=C(O)[C@H](Cc1c[nH]c2ccccc12)NS(=O)(=O)c1ccc(F)cc1"
recordedmeasurement = "57 to 60 °C"

[[record]]
molecule = "CS(=O)(=O)c1ccc(CC(N)C(O)C(=O)C2(C(=O)NC(CCCNC(=N)N)C(=O)O)CCCC2N)cc1 (centres undefined)"
recordedmeasurement = "142 to 145 °C"

[[record]]
molecule = "CC(C)(C)NC(=O)C(C)(C)N(OC(C)(C)C#N)C(C)(C)C"
recordedmeasurement = "77 to 79 °C"

[[record]]
molecule = "O=C(O)Cc1cc(C(=O)c2ccc(I)c([N+](=O)[O-])c2)sc1-c1ccccc1"
recordedmeasurement = "100 to 103 °C"

[[record]]
molecule = "O=[N+]([O-])c1c(-c2ccc(Cl)cc2)[nH]c(C(F)(F)F)c1-c1csc(Br)c1Br"
recordedmeasurement = "241 to 242 °C"


----------
endpoint: melting point

[[record]]
compound = "CC(C)(Oc1c(Br)cc(-c2c3ccccc3c(Br)c3sc4ccccc4c23)cc1Br)C(=O)O"
recordedmeasurement = "197 to 199 °C"

[[record]]
compound = "CN(CCCNC(=O)c1c(Cl)ccc2nc3ccccc3nc12)CCCNC(=O)c1c(Cl)ccc2nc3ccccc3nc12"
recordedmeasurement = "206 to 207 °C"

[[record]]
compound = "O=c1[nH]nc(-c2ccc(Cl)cc2)n1Cc1ccccc1"
recordedmeasurement = "208 to 210 °C"

[[record]]
compound = "CCOC(=O)/C=C(C)/C(F)=C/C=C(C)/C=C/c1c(C)sc(C)c1C"
recordedmeasurement = "73 to 75 °C"

[[record]]
compound = "N#CC(SSC(C#N)c1c[nH]c2ccccc12)c1c[nH]c2ccccc12 (centres undefined)"
recordedmeasurement = "169 to 170 °C"

[[record]]
compound = "COC(=O)c1cc(C(=O)NCC(=O)O)c2cc(Cc3ccc(F)cc3)cnc2c1O"
recordedmeasurement = "246 to 247 °C"

[[record]]
compound = "[N-]=[N+]=NC1(c2ccccc2Cl)C(=O)Nc2ccc(Cl)cc21 (centres undefined)"
recordedmeasurement = "178 °C"

[[record]]
compound = "N=C1N(Cc2ccc(Cl)nc2)CCN1[N+](=O)[O-]"
recordedmeasurement = "81 °C"

[[record]]
compound = "Cc1cn(COCCI)c(=O)[nH]c1=O"
recordedmeasurement = "112 to 115 °C"


----------
Entries and their melting point values follow.
endpoint: melting point

[[record]]
molecule = "COC(=O)C(=O)c1c[nH]c2c1ccc1c3ccccc3[nH]c12"
endpoint = "melting point"
recordedmeasurement = "> 290 °C"

[[record]]
molecule = "CCC1(C)CC(O)CC(C)(C)N1OC(C)(C)C#N (stereo not given)"
endpoint = "melting point"
recordedmeasurement = "48 to 60 °C"

[[record]]
molecule = "Cc1nc2c(s1)CN=C(c1ccccc1F)c1cc(Cl)ccc1-2"
endpoint = "melting point"
recordedmeasurement = "147 to 149 °C"

[[record]]
molecule = "N#Cc1c(N)nc2ccc(N3CCOCC3)cc2c1NCc1ccccc1"
endpoint = "melting point"
recordedmeasurement = "202 °C"

[[record]]
molecule = "CCOC(=O)c1cc2c(C(F)(F)F)cc(CP(=O)(OCC)OCC)cc2n1C"
endpoint = "melting point"
recordedmeasurement = "95 to 96.5 °C"

[[record]]
molecule = "COc1cc2cc(C(=O)CCC(=O)O)sc2cc1OC"
endpoint = "melting point"
recordedmeasurement = "177 to 178 °C"

[[record]]
molecule = "CC(C)(C)C(NC(=O)c1cccc(F)c1)Nc1c(Nc2cccnc2Cl)c(=O)c1=O (stereo not given)"
endpoint = "melting point"
recordedmeasurement = "228 to 229 °C"

[[record]]
molecule = "CCc1oc(C(c2ccccc2)c2ccccc2)nc1CC1CCc2c(cccc2OCC(=O)O)C1 (stereo not given)"
endpoint = "melting point"
recordedmeasurement = "150 to 152 °C"

[[record]]
molecule = "C=CCn1cc(Cc2ccc(C(=O)O)cc2OC)c2cc(C=C(C)C(=O)NCCC)ccc21"
endpoint = "melting point"
recordedmeasurement = "84 to 90 °C"

[[record]]
molecule = "Fc1ccc(-c2onc3c(CBr)cccc23)cc1"
endpoint = "melting point"
recordedmeasurement = "145 to 148 °C"


----------
endpoint: melting point

[[record]]
smilesrepresentation = "CC(C)(O)CNc1nccc(-c2c(-c3ccc(F)cc3F)nc3c(CC4CC4)nccn23)n1"
recordedmeasurement = "174 to 176 °C"

[[record]]
smilesrepresentation = "Cc1ncc2c(n1)-c1ccccc1N(C(=O)c1ccc([N+](=O)[O-])cc1)CC2"
recordedmeasurement = "211 to 212 °C"

[[record]]
smilesrepresentation = "Cc1cccc(N2CCOC2=O)c1CNc1cccn2c(Cl)c(C)nc12"
recordedmeasurement = "137 to 139 °C"

[[record]]
smilesrepresentation = "CCOC(=O)c1cnn2c1NCC=C2c1cccc(C(F)(F)F)c1"
recordedmeasurement = "108 to 110 °C"

[[record]]
smilesrepresentation = "CCCc1c(C(=O)NCc2ccc(-c3ccc(O)c(Br)c3)cc2)cnn1-c1ccccc1"
recordedmeasurement = "184 to 186 °C"


----------
endpoint: melting point

[[record]]
compound = "ClCc1cnn(-c2ccc(Cl)c(Cl)c2)c1"
endpoint = "melting point"
recordedmeasurement = "66 to 67 °C"

[[record]]
compound = "Nc1ccc(-c2nccc(-c3nc(-c4ccc(C(F)(F)F)cc4)cc(C(F)(F)F)n3)n2)cn1"
endpoint = "melting point"
recordedmeasurement = "236 °C"

[[record]]
compound = "CCOC(=O)c1nccn1C1Sc2ccccc2C1=O (centres undefined)"
endpoint = "melting point"
recordedmeasurement = "174 °C"

[[record]]
compound = "COC(=O)c1ccccc1-c1nc(COc2ccc(CO)cc2OC)c(C)o1"
endpoint = "melting point"
recordedmeasurement = "100 to 101 °C"

[[record]]
compound = "CC(C)(C)OC(=O)CN(C(=O)CNC(=O)Nc1cnc2ccccc2c1)c1ccccc1"
endpoint = "melting point"
recordedmeasurement = "191 °C"

[[record]]
compound = "CCc1noc(-c2ncn(-c3cccc(OC)c3)c2COC)n1"
endpoint = "melting point"
recordedmeasurement = "66 to 68 °C"

[[record]]
compound = "NC(=O)CC(=O)NCCCOc1cccc(CN2CCCCC2)c1"
endpoint = "melting point"
recordedmeasurement = "85.3 to 88.3 °C"

[[record]]
compound = "CN(C)C=Cc1[nH]c(=O)ccc1C(=O)c1ccc(Br)cc1"
endpoint = "melting point"
recordedmeasurement = "265 to 268 °C"

[[record]]
compound = "FC(F)(F)c1ccc(Sc2nc(-c3ccccc3)c(-c3ccccc3)[nH]2)cc1"
endpoint = "melting point"
recordedmeasurement = "227 to 229 °C"

[[record]]
compound = "CC1CC(=O)c2cc(OCc3ccc4ccccc4n3)cnc2C1 (centres undefined)"
endpoint = "melting point"
recordedmeasurement = "141 to 144 °C"

[[record]]
compound = "C[C@H]1C(=O)C[C@@H]2C[C@H]1OO[C@]2(C)/C=C\\c1ccc(C(F)(F)F)cc1Cl"
endpoint = "melting point"
recordedmeasurement = "160 °C"

[[record]]
compound = "Oc1ccc(-c2nn(-c3ccc(Br)cc3)c3cc(O)ccc23)c(O)c1"
endpoint = "melting point"
recordedmeasurement = "246 °C"

[[record]]
compound = "CCn1ncc2c1ncc1c(=O)[nH]c3cc(C)nn3c12"
endpoint = "melting point"
recordedmeasurement = "285 to 286 °C"

[[record]]
compound = "CCn1nc2c(N)nc3ccccc3c2c1CC1(F)CCN(C(C)=O)CC1"
endpoint = "melting point"
recordedmeasurement = "228 to 230 °C"

[[record]]
compound = "Cn1nc2ccc(Cl)nn2c1=O"
endpoint = "melting point"
recordedmeasurement = "176 to 177 °C"

[[record]]
compound = "CCc1cccc(C)c1S(=O)(=O)c1nn(C(=O)N(CC)CC)cc1OC"
endpoint = "melting point"
recordedmeasurement = "102 to 104 °C"

[[record]]
compound = "COc1ccccc1N1CCN(C(=O)Nc2cc3ccccc3nc2OC)CC1"
endpoint = "melting point"
recordedmeasurement = "159 to 161 °C"

[[record]]
compound = "NC(=O)Cn1cc(C(=O)c2ccn3c2CSC3c2cccnc2)c2ccc(-c3ccc(F)cc3)cc21 (centres undefined)"
endpoint = "melting point"
recordedmeasurement = "215 to 225 °C"

[[record]]
compound = "C=CCCC(C#N)(C#N)Cc1ccc(OCC=C)cc1"
endpoint = "melting point"
recordedmeasurement = "77.7 °C"

[[record]]
compound = "CC(C)(C)S(=O)(=O)c1cccc(-c2nc(=O)c3ccccc3s2)n1"
endpoint = "melting point"
recordedmeasurement = "234 to 235 °C"

[[record]]
compound = "NS(=O)(=O)c1ccccc1OC(Cl)=CCl"
endpoint = "melting point"
recordedmeasurement = "147 to 149 °C"

[[record]]
compound = "CC(=O)Nc1ccc(N2C(=O)C3CCC2n2c(=O)n(-c4ccccc4)c(=O)n23)cc1 (centres undefined)"
endpoint = "melting point"
recordedmeasurement = "144 to 145 °C"

[[record]]
compound = "CC#CCOc1ccc(S(=O)(=O)C2(C(=O)NO)CCCN(Cc3ccc(Cl)cc3)C2)cc1 (centres undefined)"
endpoint = "melting point"
recordedmeasurement = "124 °C"

[[record]]
compound = "COc1c(C)cc2c(c1C)C(c1ccc(C(C)C)cc1)C(C)(C)O2 (centres undefined)"
endpoint = "melting point"
recordedmeasurement = "121 to 123 °C"

[[record]]
compound = "COC(=O)C(C)(C)Cc1cc2cc(OCc3ccc4ccccc4n3)ccc2[nH]1"
endpoint = "melting point"
recordedmeasurement = "131 to 132 °C"

[[record]]
compound = "CCCCOc1c(N(C)C(=O)OC(C)(C)C)n(CC(C)(C)C)c(=O)c2ccc(O)cc12"
endpoint = "melting point"
recordedmeasurement = "196 to 197 °C"

[[record]]
compound = "O=[N+]([O-])c1ccc2nc(-c3ccc4c(c3)OCO4)ncc2c1"
endpoint = "melting point"
recordedmeasurement = "220 to 222 °C"

[[record]]
compound = "O=C1c2ccccc2C(=O)c2sc(-c3ccc(F)cc3F)nc21"
endpoint = "melting point"
recordedmeasurement = "> 260 °C"

[[record]]
compound = "COc1cc(C(C)C)c2c(c1)S(=O)(=O)N(COc1cc(-c3ccccc3)nn1-c1ccccc1)C2=O"
endpoint = "melting point"
recordedmeasurement = "62 to 76 °C"

[[record]]
compound = "CN(C)C(=O)C(C#N)=C(OC(=O)c1ccc(Cl)cc1[N+](=O)[O-])c1ccc(Cl)cc1[N+](=O)[O-]"
endpoint = "melting point"
recordedmeasurement = "137 to 146 °C"

[[record]]
compound = "Cc1c(-c2ccccc2)c(N2CC(N(C)C)C2)c2oc(C(C)(C)C)nc2c1C#N"
endpoint = "melting point"
recordedmeasurement = "211 to 212 °C"

[[record]]
compound = "CC(C)(NC(=O)OCc1ccccc1)C(=O)NCCCc1ccccc1"
endpoint = "melting point"
recordedmeasurement = "84 to 92 °C"

[[record]]
compound = "O=C(O)c1cc(OCc2ccccc2)ccc1OCc1ccccc1"
endpoint = "melting point"
recordedmeasurement = "107 to 108 °C"

[[record]]
compound = "COCCCc1ccc(C#CC2(O)CN3CCC2CC3)cc1 (centres undefined)"
endpoint = "melting point"
recordedmeasurement = "145 °C"

[[record]]
compound = "CCOc1cc(CCC2OC(=O)NC2=O)ccc1OCc1ccccc1 (centres undefined)"
endpoint = "melting point"
recordedmeasurement = "143 to 144 °C"

[[record]]
compound = "Nc1cc(-c2c(-c3cccc(Cl)c3)nc3ccc(Cl)nn23)ccn1"
endpoint = "melting point"
recordedmeasurement = "268 to 269 °C"

[[record]]
compound = "O=[N+]([O-])c1ccc(OCc2ccccc2)cc1OCc1ccccc1"
endpoint = "melting point"
recordedmeasurement = "101 to 103 °C"

[[record]]
compound = "COc1ccc2c(c1)C=C(C(=O)NCCCCN1CCN(c3ccccc3OC)CC1)CO2"
endpoint = "melting point"
recordedmeasurement = "165 °C"

[[record]]
compound = "CCNc1cc(-c2nc(=O)c3ccccc3s2)ccc1C(=O)OC"
endpoint = "melting point"
recordedmeasurement = "171 to 178 °C"

